B1: VH:VL chains; a variant is named by its letters at X, in order (parent)
chain 1: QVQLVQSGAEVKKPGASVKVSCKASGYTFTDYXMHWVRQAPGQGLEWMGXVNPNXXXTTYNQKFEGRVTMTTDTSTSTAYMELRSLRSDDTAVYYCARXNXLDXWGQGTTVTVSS
chain 2: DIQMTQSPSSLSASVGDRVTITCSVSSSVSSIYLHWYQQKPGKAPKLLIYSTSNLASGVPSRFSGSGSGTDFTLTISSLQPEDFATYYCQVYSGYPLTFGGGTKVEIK

# Variants of: B1
# measurement.notes: yeast display scFab, FACS + sequencing
quantity: non-specific binding call

See these solved cases before continuing.
1) VAGRSFGS; binds
2) YKAKGAGD; binds
3) DAETAAAA; no binding
4) DRRGDAVA; no binding

Input: I am curious: what non-specific binding call value has been reported for YKRGSAAA ?
Output: binds

Input: Similarly, FRAGGAWV ?
Output: binds

Input: Lookup VRRGGSGD
Output: binds

Input: What do you have for FARKSFGS ?
Output: binds

Input: Same question for YRAKGSAV please.
Output: binds

Input: Entry VKTGGAVV please
Output: no binding
